# System Under Test: human ADRA2B receptor (Homo sapiens)
# Construct: expressed in transfected cells
# Procedure Details: ADRA2B arrestin agonist assay
# Type: cell-based
# Condition Description: CHO-K1 cells stably expressing human ADRA2B; read-out: Beta-Arrestin - Human Alpha2B EC50
Reported Endpoint: EC50

Field request: EC50 | item: c1cc2c(c(C(Cc3cnco3)c3c[nH]cn3)c1)OCC2 (centres unmarked)
10 to 50 nM

Next: "Cc1cccc([C@H](Cc2ccnn2C(F)F)c2c[nH]cn2)c1C"
< 10 nM

====

# System Under Test: human ADRA2B receptor (Homo sapiens, UniProt P18089)
# Construct: expressed in transfected cells
# Sequence (P18089 whole entry): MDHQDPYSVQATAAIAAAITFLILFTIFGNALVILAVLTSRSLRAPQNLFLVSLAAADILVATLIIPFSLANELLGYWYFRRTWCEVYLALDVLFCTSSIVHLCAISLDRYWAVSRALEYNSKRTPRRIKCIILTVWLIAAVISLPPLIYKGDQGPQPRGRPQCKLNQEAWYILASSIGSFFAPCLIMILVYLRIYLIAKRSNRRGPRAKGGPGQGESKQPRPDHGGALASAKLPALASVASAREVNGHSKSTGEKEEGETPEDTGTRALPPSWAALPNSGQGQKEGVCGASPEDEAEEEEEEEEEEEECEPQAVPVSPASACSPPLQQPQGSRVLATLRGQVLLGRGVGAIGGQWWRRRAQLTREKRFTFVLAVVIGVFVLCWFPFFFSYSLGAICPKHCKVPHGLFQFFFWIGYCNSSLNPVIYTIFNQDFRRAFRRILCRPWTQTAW
# Procedure Details: GTPγS agonist assay, ADRA2B receptor
# Assay type: biochemical
# Condition Description: read-out: GTPase - Human Alpha2B EC50
pEC50: −log10 of the molar value.
// values below are reported pEC50

INSERT INTO measurements (molecule, readout_value) VALUES
  ('COc1cccc(C[C@H](c2cnc[nH]2)c2cccc3c2COC3)n1', '> 8.00'),
  ('FC(F)(F)c1ccc(C(Cc2cccnn2)c2c[nH]cn2)cc1 (centres unmarked)', '< 6.30'),
  ('Cc1cccc([C@@H](Cc2ccccn2)c2cnc[nH]2)c1C', '7.30 to 8.00'),
  ('COc1c(C)cccc1C(Cc1ccnc(C)n1)c1c[nH]cn1 (centres unmarked)', '6.30 to 7.30');

// below: pEC50 requested for another molecule
Field request: pEC50 | item: "FC(F)(F)Oc1cccc([C@@H](Cc2ccccn2)c2cnc[nH]2)c1"
7.30 to 8.00

====

// values below are reported EC50
# System Under Test: human ADRA2B receptor (Homo sapiens)
# Construct: expressed in transfected cells
# Procedure Details: ADRA2B arrestin agonist assay
# Type: cell-based
# Condition Description: CHO-K1 cells stably expressing human ADRA2B; read-out: Beta-Arrestin - Human Alpha2B EC50

Some molecules with known EC50 results, for comparison:
INSERT INTO measurements (molecule, system_under_test, readout_value) VALUES
  ('Cc1cccc(C(Cc2cocn2)c2c[nH]cn2)c1Cl (stereo not shown) [Compound 376]', 'human ADRA2B receptor (Homo sapiens)', '10 to 50 nM'),
  ('Cc1cccc(C(Cc2ncnc3[nH]ccc23)c2c[nH]cn2)c1C (stereo not shown) [Compound 286]', 'human ADRA2B receptor (Homo sapiens)', '< 10 nM'),
  ('COc1c(C)cccc1[C@H](Cc1ccnn1C)c1c[nH]cn1 [Compound 382]', 'human ADRA2B receptor (Homo sapiens)', '10 to 50 nM'),
  ('Cc1cccc(C(Cc2cnsc2)c2c[nH]cn2)c1C (stereo not shown) [Compound 391]', 'human ADRA2B receptor (Homo sapiens)', '< 10 nM'),
  ('COc1cc(CC(c2c[nH]cn2)c2cccc(C)c2C)nc(OC)n1 (stereo not shown) [Compound 307]', 'human ADRA2B receptor (Homo sapiens)', '< 10 nM');

Field request: EC50 | item: COc1nccc(CC(c2cccc(C)c2)c2c[nH]cn2)n1 (stereo not shown) [Compound 337]
10 to 50 nM

Next: Cc1cc(CC(c2c[nH]cn2)c2cccc(C)c2C)ccn1 (stereo not shown) [Compound 255]
< 10 nM

Next: CN1CCc2cccc(C(Cc3cn(C)nn3)c3c[nH]cn3)c21 (stereo not shown) [Compound 387]
50 to 500 nM

Next: Cc1cccc([C@H](Cc2ccn(C(F)F)n2)c2c[nH]cn2)c1C [Compound 280]
< 10 nM

Next: Cc1cccc(C(Cc2ccnc(C3COC3)n2)c2c[nH]cn2)c1C (stereo not shown) [Compound 210]
< 10 nM
